Just for reference, ChEMBL document CHEMBL5537166 is where these values come from.

assay.comment: Initial plasma concentration in CD-1 mouse at 10 mg/kg, iv measured for 24 hrs
Assay type: ADME, organism-based
observable: C0 at 24 h (ng/mL)
Answer format: numeric, ng/mL implied, no suffix.

response.value for Cc1ncsc1-c1ccc([C@H](C)NC(=O)[C@@H]2C[C@@H](O)CN2C(=O)[C@@H](c2cc(N3CCC(CN4CCC(O[C@H]5C[C@H](Oc6cc(N7C8CCC7CN(c7cc(-c9ccccc9O)nnc7N)C8)ccn6)C5)CC4)CC3)no2)C(C)C)cc1 (field: C0 at 24 h) = 12600

---

assay.comment: Volume of distribution in CD-1 mouse at 30 mg/kg, iv measured for 24 hrs
Type: ADME, organism-based
condition.summary: in vivo
observable: Vd (L/kg)
Answer format: numeric, L/kg implied, no suffix.

response.value for Cc1ncsc1-c1ccc([C@H](C)NC(=O)[C@@H]2C[C@@H](O)CN2C(=O)[C@@H](c2cc(N3CCC(CN4CCC(O[C@H]5C[C@H](Oc6cc(N7C8CCC7CN(c7cc(-c9ccccc9O)nnc7N)C8)ccn6)C5)CC4)CC3)no2)C(C)C)cc1 (field: Vd) = 8.7

---

assay.comment: Metabolic stability in human liver microsome assessed as hepatic extraction ratio measured upto 60 mins by LC-MS/MS analysis
Type: ADME
condition.summary: liver microsomes
observable: hepatic extraction ratio at 1 h
# answer = number (no unit)

Cc1ncsc1-c1ccc([C@H](C)NC(=O)[C@@H]2C[C@@H](O)CN2C(=O)[C@@H](c2cc(OCC#Cc3ccc(O[C@H]4C[C@H](Oc5cc(N6C7CCC6CN(c6cc(-c8ccccc8O)nnc6N)C7)ccn5)C4)cn3)no2)C(C)C)cc1 = 0.15
Cc1ncsc1-c1ccc([C@H](C)NC(=O)[C@@H]2C[C@@H](O)CN2C(=O)[C@@H](c2cc(N3CCN(CC4CCN(C[C@H]5C[C@H](Oc6cc(N7C8CCC7CN(c7cc(-c9ccccc9O)nnc7N)C8)ccn6)C5)CC4)CC3)no2)C(C)C)cc1 = 0.15

response.value for Cc1ncsc1-c1ccc(CNC(=O)[C@@H]2C[C@@H](O)CN2C(=O)[C@@H](c2cc(OCCN3CCN(CCOc4cc(N5C6CCC5CN(c5cc(-c7ccccc7O)nnc5N)C6)ccn4)CC3)no2)C(C)C)cc1 (field: hepatic extraction ratio at 1 h) = 0.65

response.value for Cc1ncsc1-c1ccc([C@H](C)NC(=O)[C@@H]2C[C@@H](O)CN2C(=O)[C@@H](c2cc(N3CCC(CN4CCC(Oc5cc(N6C7CCC6CN(c6cc(-c8ccccc8O)nnc6N)C7)ccn5)CC4)CC3)no2)C(C)C)cc1 (field: hepatic extraction ratio at 1 h) = 0.41

---

Activity listing for selected molecules.
Tested on: Mus musculus
assay.comment: In-vivo PROTAC activity at BRM/VHL in CD-1 mouse xenografted with Murine stromal cell line at 20 mg/kg, iv measured for 96 hrs
Type: functional
Answer format: numeric, % implied, no suffix.

Cc1ncsc1-c1ccc([C@H](C)NC(=O)[C@@H]2C[C@@H](O)CN2C(=O)[C@@H](c2cc(N3CCC(CN4CCC(Oc5cc(N6C7CCC6CN(c6cc(-c8ccccc8O)nnc6N)C7)ccn5)CC4)CC3)no2)C(C)C)cc1 = 59
Cc1ncsc1-c1ccc([C@H](C)NC(=O)[C@@H]2C[C@@H](O)CN2C(=O)[C@@H](c2cc(N3CCN(C[C@H]4C[C@H](Oc5cc(N6C7CCC6CN(c6cc(-c8ccccc8O)nnc6N)C7)ccn5)C4)CC3)no2)C(C)C)cc1 = 53
Cc1ncsc1-c1ccc([C@H](C)NC(=O)[C@@H]2C[C@@H](O)CN2C(=O)[C@@H](c2cc(OCCN3CCN(CCOc4cc(N5C6CCC5CN(c5cc(-c7ccccc7O)nnc5N)C6)ccn4)[C@H](C)C3)no2)C(C)C)cc1 = 0

response.value for Cc1ncsc1-c1ccc([C@H](C)NC(=O)[C@@H]2C[C@@H](O)CN2C(=O)[C@@H](c2cc(N3CCN(CC4CCN(C[C@H]5C[C@H](Oc6cc(N7C8CCC7CN(c7cc(-c9ccccc9O)nnc7N)C8)ccn6)C5)CC4)CC3)no2)C(C)C)cc1 (field: Activity) = 83

response.value for Cc1ncsc1-c1ccc([C@H](C)NC(=O)[C@@H]2C[C@@H](O)CN2C(=O)[C@@H](c2cc(OCCN3CCC(O[C@H]4C[C@H](Oc5cc(N6C7CCC6CN(c6cc(-c8ccccc8O)nnc6N)C7)ccn5)C4)CC3)no2)C(C)C)cc1 (field: Activity) = 4

response.value for Cc1ncsc1-c1ccc([C@H](C)NC(=O)[C@@H]2C[C@@H](O)CN2C(=O)[C@@H](c2cc(N3CCC(O[C@H]4C[C@H](Oc5cc(N6C7CCC6CN(c6cc(-c8ccccc8O)nnc6N)C7)ccn5)C4)CC3)no2)C(C)C)cc1 (field: Activity) = 22

response.value for Cc1ncsc1-c1ccc([C@H](C)NC(=O)[C@@H]2C[C@@H](O)CN2C(=O)[C@@H](c2cc(N3CCN(CCN4CCC(O[C@H]5C[C@H](Oc6cc(N7C8CCC7CN(c7cc(-c9ccccc9O)nnc7N)C8)ccn6)C5)CC4)CC3)no2)C(C)C)cc1 (field: Activity) = 28

response.value for Cc1ncsc1-c1ccc([C@H](C)NC(=O)[C@@H]2C[C@@H](O)CN2C(=O)[C@@H](c2cc(N3CCC(CN4CCC(O[C@H]5C[C@H](Oc6cc(N7C8CCC7CN(c7cc(-c9ccccc9O)nnc7N)C8)ccn6)C5)CC4)CC3)no2)C(C)C)cc1 (field: Activity) = 22

---

assay.comment: Half life in CD-1 mouse at 10 mg/kg, iv measured for 24 hrs
Type: ADME, organism-based
condition.summary: in vivo
observable: half-life (h)
Answer format: numeric, h implied, no suffix.

response.value for Cc1ncsc1-c1ccc([C@H](C)NC(=O)[C@@H]2C[C@@H](O)CN2C(=O)[C@@H](c2cc(N3CCC(CN4CCC(O[C@H]5C[C@H](Oc6cc(N7C8CCC7CN(c7cc(-c9ccccc9O)nnc7N)C8)ccn6)C5)CC4)CC3)no2)C(C)C)cc1 (field: half-life) = 6.6

---

assay.comment: Plasma protein binding in mouse incubated for 15 mins by LC-MS/MS analysis
Format: ADME, cell-free
condition.summary: read-out: PPB (converted)
fraction unbound at 0.25 h listing for selected molecules.
# answer = number (no unit)

The examples below pair each entry with its known result.
Cc1ncsc1-c1ccc([C@H](C)NC(=O)[C@@H]2C[C@@H](O)CN2C(=O)[C@@H](c2cc(N3CCN(CC4CCN(C[C@H]5C[C@H](Oc6cc(N7C8CCC7CN(c7cc(-c9ccccc9O)nnc7N)C8)ccn6)C5)CC4)CC3)no2)C(C)C)cc1 = 0.035
Cc1ncsc1-c1ccc([C@H](C)NC(=O)[C@@H]2C[C@@H](O)CN2C(=O)[C@@H](c2cc(N3CCN(C[C@H]4C[C@H](Oc5cc(N6C7CCC6CN(c6cc(-c8ccccc8O)nnc6N)C7)ccn5)C4)CC3)no2)C(C)C)cc1 = 0.011
Cc1ncsc1-c1ccc([C@H](C)NC(=O)[C@@H]2C[C@@H](O)CN2C(=O)[C@@H](c2cc(N3CCC(CN4CCC(Oc5cc(N6C7CCC6CN(c6cc(-c8ccccc8O)nnc6N)C7)ccn5)CC4)CC3)no2)C(C)C)cc1 = 0.006

response.value for Cc1ncsc1-c1ccc([C@H](C)NC(=O)[C@@H]2C[C@@H](O)CN2C(=O)[C@@H](c2cc(OCCN3CCC(O[C@H]4C[C@H](Oc5cc(N6C7CCC6CN(c6cc(-c8ccccc8O)nnc6N)C7)ccn5)C4)CC3)no2)C(C)C)cc1 (field: fraction unbound at 0.25 h) = 0.027

---

assay.comment: Metabolic stability in human liver microsome assessed as hepatic extraction ratio measured upto 60 mins by LC-MS/MS analysis
Type: ADME
condition.summary: liver microsomes
hepatic extraction ratio at 1 h listing for selected molecules.
# answer = number (no unit)

Cc1ncsc1-c1ccc([C@H](C)NC(=O)[C@@H]2C[C@@H](O)CN2C(=O)[C@@H](c2cc(OCCN3CCN(CCOc4cc(N5C6CCC5CN(c5cc(-c7ccccc7O)nnc5N)C6)ccn4)C[C@@H]3C)no2)C(C)C)cc1 = 0.83

response.value for Cc1ncsc1-c1ccc([C@H](C)NC(=O)[C@@H]2C[C@@H](O)CN2C(=O)[C@@H](c2cc(OCCN3CCN(CCOc4cc(N5C6CCC5CN(c5cc(-c7ccccc7O)nnc5N)C6)ccn4)[C@H](C)C3)no2)C(C)C)cc1 (field: hepatic extraction ratio at 1 h) = 0.83

response.value for Cc1ncsc1-c1ccc([C@H](C)NC(=O)[C@@H]2C[C@@H](O)CN2C(=O)[C@@H](c2cc(N3CCC(O[C@H]4C[C@H](Oc5cc(N6C7CCC6CN(c6cc(-c8ccccc8O)nnc6N)C7)ccn5)C4)CC3)no2)C(C)C)cc1 (field: hepatic extraction ratio at 1 h) = 0.14

response.value for Cc1ncsc1-c1ccc([C@H](C)NC(=O)[C@@H]2C[C@@H](O)CN2C(=O)[C@@H](c2cc(N3CCN(C[C@H]4C[C@H](Oc5cc(N6C7CCC6CN(c6cc(-c8ccccc8O)nnc6N)C7)ccn5)C4)CC3)no2)C(C)C)cc1 (field: hepatic extraction ratio at 1 h) = 0.27

response.value for Cc1ncsc1-c1ccc([C@H](C)NC(=O)[C@@H]2C[C@@H](O)CN2C(=O)[C@@H](c2cc(N3CCN(CCN4CCC(O[C@H]5C[C@H](Oc6cc(N7C8CCC7CN(c7cc(-c9ccccc9O)nnc7N)C8)ccn6)C5)CC4)CC3)no2)C(C)C)cc1 (field: hepatic extraction ratio at 1 h) = 0.4

response.value for Cc1ncsc1-c1ccc([C@H](C)NC(=O)[C@@H]2C[C@@H](O)CN2C(=O)[C@@H](c2cc(OCCN3CCN(CCOc4cc(N5C6CCC5CN(c5cc(-c7ccccc7O)nnc5N)C6)ccn4)CC3)no2)C(C)C)cc1 (field: hepatic extraction ratio at 1 h) = 0.72
